- Test System: human DLL4, full length, on cells (human, UniProt Q9NR61 27-685)
- Sequence (Q9NR61 27-685 limits assumed): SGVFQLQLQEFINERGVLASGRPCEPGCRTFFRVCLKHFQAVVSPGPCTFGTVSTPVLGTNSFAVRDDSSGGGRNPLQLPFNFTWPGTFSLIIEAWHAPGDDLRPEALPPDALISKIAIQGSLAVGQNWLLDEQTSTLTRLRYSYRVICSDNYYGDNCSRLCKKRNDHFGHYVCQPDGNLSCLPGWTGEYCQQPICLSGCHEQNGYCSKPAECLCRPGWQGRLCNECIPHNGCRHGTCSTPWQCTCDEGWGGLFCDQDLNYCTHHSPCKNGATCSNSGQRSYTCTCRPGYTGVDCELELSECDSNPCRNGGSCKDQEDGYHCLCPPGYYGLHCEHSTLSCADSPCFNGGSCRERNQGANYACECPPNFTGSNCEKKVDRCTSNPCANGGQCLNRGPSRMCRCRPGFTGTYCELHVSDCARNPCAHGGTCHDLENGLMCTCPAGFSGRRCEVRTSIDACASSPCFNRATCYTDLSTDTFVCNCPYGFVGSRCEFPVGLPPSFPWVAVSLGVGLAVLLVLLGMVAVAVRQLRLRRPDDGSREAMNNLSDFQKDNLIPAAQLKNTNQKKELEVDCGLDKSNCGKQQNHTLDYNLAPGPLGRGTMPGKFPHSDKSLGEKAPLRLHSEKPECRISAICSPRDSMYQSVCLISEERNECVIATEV
- Assay Summary: cell-based or functional assay
Test Readout: Notch Reporter Assay EC50 (nM)
Express it in nM; write the number only.

binder="h38H12.11 (antibody, V domains shown, humanized IgG; also called VH.1b/VL.1b 38H12) VH: EVQLVESGGGVVQPGRSLRLSCAASGFTFSNYGMYWVRQAPGKGLEWVAFISHGGGITYYRDSVKGRFTISRDNSKNTLYLQMNSLRAEDTAVYYCAALNWELGIDYWGQGTMVTVSS VL: DIQMTQSPSSLSASVGDRVTITCRASEDIYSNLAWYQQKPGKAPKLLIYAANRLQDGVPSRFSGSGSGTDYTLTISSLQPEDFATYYCLQGSKFPLTFGQGTKLEIKR" test_readout="Notch Reporter Assay EC50" recorded_value=0.657
binder="h38H12.7 (antibody, V domains shown, humanized IgG; also called VH.1a/VL.1b 38H12) VH: EVQLVESGGGVVQPGRSLRLSCAASGFTFSNYGMYWIRQAPGKGLEWVAFISHGGGITYYRDSVKGRFTISRDNSKSTLYLQMNSLRAEDTAVYHCAALNWELGIDYWGQGTMVTVSS VL: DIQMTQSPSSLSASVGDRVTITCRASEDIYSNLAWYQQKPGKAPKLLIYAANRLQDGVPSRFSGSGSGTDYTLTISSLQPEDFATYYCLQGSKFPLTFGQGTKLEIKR" test_readout="Notch Reporter Assay EC50" recorded_value=2.6

Ask: Tell us which Notch Reporter Assay EC50 value is on record for h38H12.13 (antibody, V domains shown, humanized IgG; also called VH.2a/VL.1 38H12) VH: EVQLVESGGGLVQPGGSLRLSCAASGFTFSNYGMYWIRQAPGKGLEWVAFISHGGGITYYRDSVKGRFTISRDNSKSTLYLQMNSLRAEDTAVYHCAALNWELGIDYWGQGTMVTVSS VL: DIQMTQSPSSLSASVGDRVTITCRASEDIYSNLAWYQQKPGKAPKLLIYAANRLQDGVPSRFSGSGSGTDFTLTISSLQPEDFATYYCLQGSKFPLTFGQGTKLEIKR
Reply: 0.794

Ask: Tell us which Notch Reporter Assay EC50 value is on record for h38H12.10 (antibody, V domains shown, humanized IgG; also called VH.1b/VL.1a 38H12) VH: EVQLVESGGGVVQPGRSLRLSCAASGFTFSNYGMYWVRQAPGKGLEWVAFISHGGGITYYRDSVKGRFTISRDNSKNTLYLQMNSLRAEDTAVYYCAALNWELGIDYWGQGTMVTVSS VL: DIQMTQSPSSLSASVGDRVTITCRASEDIYSNLAWYQKKPGKSPKLLIYAANRLQDGVPSRFSGSGSGTDYTLTISSLQPEDFATYFCLQGSKFPLTFGQGTKLEIKR
Reply: 0.786

Ask: Tell us which Notch Reporter Assay EC50 value is on record for h38H12.14 (antibody, V domains shown, humanized IgG; also called VH.2a/VL.1a 38H12) VH: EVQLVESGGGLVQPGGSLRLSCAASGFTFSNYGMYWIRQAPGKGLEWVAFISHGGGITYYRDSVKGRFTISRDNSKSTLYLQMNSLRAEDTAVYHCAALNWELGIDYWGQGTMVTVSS VL: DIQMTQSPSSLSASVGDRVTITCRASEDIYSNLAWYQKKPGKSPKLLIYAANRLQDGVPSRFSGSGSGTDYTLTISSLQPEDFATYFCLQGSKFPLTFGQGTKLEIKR
Reply: 1.01

Ask: Tell us which Notch Reporter Assay EC50 value is on record for h38H12.16 (antibody, V domains shown, humanized IgG; also called VH.2a/VL.2a 38H12) VH: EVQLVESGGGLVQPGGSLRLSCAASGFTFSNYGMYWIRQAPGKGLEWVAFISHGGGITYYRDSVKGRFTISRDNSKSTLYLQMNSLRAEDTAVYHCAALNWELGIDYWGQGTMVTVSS VL: EIVMTQSPATLSVSPGERATLSCRASEDIYSNLAWYQKKPGQSPRLLIYAANRLQDGVPARFSGSGSGTEYTLTISSLQSEDFAVYFCLQGSKFPLTFGQGTKLEIKR
Reply: 1.19
